Below, each of the binders is paired with its reported REVEAL score value.
System Name: T1, MHC class 1 allele A*02:01
T1 construct: also called HLA-A2; HLA-A*02:01
Experiment: REVEAL peptide-MHC binding assay, HLA-A*02:01
Quantity Name: REVEAL score

* ALSVMGVYV (also called p223; M9-A2-223) [MAGE-A9 223 (MAGE-A9 peptide antigen 223, ALSVMGVYV)] | 199
* KVAELVHFL (also called p111) [MAGE-A9 111 (MAGE-A9 peptide antigen 111, KVAELVHFL)] | 166
* LMLGEFLKL [SurA2.M (survivin peptide antigen HLA-A2, LMLGEFLKL)] | 172
* FLWGSKAHA (also called p270; M9-A2-270) [MAGE-A9 270 (MAGE-A9 peptide antigen 270, FLWGSKAHA)] | 173
